Test system: PFTAIRE2;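 note: KINOMEscan kinase panel screen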
Conditions: concentration: 1 μM,replicates: in singlicate; n = 1
Recorded measurements of %Inh, one per entry
A number alone suffices; assume %.

| Compound | %Inh (%) |
| --- | --- |
| CN(C)CCOc1ccc(-c2cc(-c3c[nH]nc3-c3ccccn3)ccn2)cc1 | 19 |
| C[C@H]1Oc2cc(cnc2N)-c2c(nn(C)c2C#N)CN(C)C(=O)c2ccc(F)cc21 | 10 |
| O=C(NCCNc1ccnc(NCc2ccc(F)cc2)n1)c1cc2ccccc2s1 | 7 |
| CC(C)N1C(=O)Cc2cc(Nc3ncc(C(F)(F)F)c(NCc4cccc(S(C)(=O)=O)c4)n3)ccc21 | 6 |
| CN(C)CC(O)COc1ccc(Nc2nccc(-c3cnn4nc(N5CCOCC5)ccc34)n2)cc1 (stereo not drawn) | 16 |
| Cc1occc1-c1nc(N)c(OC[C@@H](N)Cc2c[nH]c3ccccc23)cc1-c1cc2c(C)n[nH]c2cn1 | 100 |
| NC(=O)c1cc(-c2ccccc2)cc2c(C3CCNCC3)c[nH]c12 | 21 |
| Cl.Cl.NC[C@H](Cc1ccc(C(F)(F)F)cc1)NC(=O)c1cc(Br)c(-c2ccnc3[nH]ccc23)s1 | 5 |

%Inh lookup needed for Cl.Cl.Nc1nc(-c2ccc3c(N)n[nH]c3c2)cc(N2CCCC(NC(=O)c3ccccc3)C2)n1 (stereo not drawn) , thanks.
18

Origin of measurements: paper PMC5540273
